Data origin: patent US20250042994A1

Biological target: T1, Human CD19-his protein (human, UniProt P15391 20-291)
T1 construct: bought protein; also called human CD19 protein; recombinant human CD19-His; not shown: His tag
T1 sequence (looked up): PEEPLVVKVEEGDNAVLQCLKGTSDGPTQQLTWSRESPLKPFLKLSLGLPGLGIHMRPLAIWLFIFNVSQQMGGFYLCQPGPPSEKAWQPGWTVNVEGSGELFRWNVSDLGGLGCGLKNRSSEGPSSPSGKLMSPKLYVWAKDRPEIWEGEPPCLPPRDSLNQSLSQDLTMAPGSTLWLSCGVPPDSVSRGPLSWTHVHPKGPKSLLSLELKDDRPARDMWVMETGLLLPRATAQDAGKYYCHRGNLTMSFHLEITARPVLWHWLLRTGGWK
Test: ELISA, antibody at 0.01 nM
OD450 reference
A bare number is all that is needed in reply.

binder | testReadout | result
F4.15.9 (antibody, human IgG1, V domains shown, human-murine chimeric antibody, human IgG1) VH: QVQLQQSGPELVKPGASVKISCKASGYAFSSSWMNWLKQRPGQGLEWIGRIYPGDGDTNYNGKFKGKATLTADESSSTAYMQLSSLTSVDSAVYFCARGITTIITIAWFASWGQGTLVTVSA VL: QIVLSQSPTILSASPGEKVTMTCRASSSVSYMHWYQQKPGSSPKPWIYATSNLASGVPPRFSGSGSGTSYSLTISRVGAEDAATYYCQQWSSDPWTFGGGTKLEIK | OD450 | 0.24

// moving on: another record for OD450
Param item = F4.180.1 (antibody, human IgG1, V domains shown, human-murine chimeric antibody, human IgG1) VH: EVQLQQSAPELVKPGASVKMSCKTSGYTFTENIIHWVKQTHGKSLEWIGGINPDNGGTSYHQKFKGRTTLTIDKSSSTAYMELRSLTSDDSAVFFCARQAPLYWYFDIWGAGTTVTVSS VL: DIVLTQSPASLAVSLGQRATISCRASESVDSYGNSLMHWFQQKPGQPPRLLIYRASNLESGIPARFSGSGSRTDFTLTITPVEADDVATYYCQQSNEDPWTFGGGTKLEIK ; retrieve measured OD450.
0.12
